Every entry's value here was drawn from ChEMBL document CHEMBL1137661.

# ASSAY_PROTOCOL: Half life in human at 20 mg, po qd for 10 days
# Format: ADME, organism-based
# MEASUREMENT_PARAMETERS: in vivo
OBSERVABLE: half-life (h)
Return type: number; implicit unit h.

[ask] # half-life lookup, item "Fc1ccc([C@@H]2CCNC[C@H]2COc2ccc3c(c2)OCO3)cc1"
[reply] 21.1

---

# ASSAY_PROTOCOL: Cmax in human at 20 mg, po qd for 10 days
# Format: ADME, organism-based
# Design: dose 20 mg, route oral
# MEASUREMENT_PARAMETERS: in vivo
OBSERVABLE: Cmax (ng/mL)
Give the number; ng/mL is assumed, so skip it.

[ask] What value of measured Cmax is listed for "Fc1ccc([C@@H]2CCNC[C@H]2COc2ccc3c(c2)OCO3)cc1" ?
[reply] 34

---

# ASSAY_PROTOCOL: AUC (0 to 24 hrs) in human at 20 mg, po qd for 10 days followed by 16 days washout period and treated with 20 mg, po qd for 10 days coadministered with fosamprenavir at 700 mg, po bid and ritonavir at 100 mg, po bid
# Assay type: ADME, organism-based
# Parameters: dose 20 mg, time < 24 hr, route oral
# MEASUREMENT_PARAMETERS: plasma
OBSERVABLE: AUC at 24 h

[ask] Look up AUC at 24 h for this compound: "Fc1ccc([C@@H]2CCNC[C@H]2COc2ccc3c(c2)OCO3)cc1"
[reply] 270 ng·h/mL

---

# ASSAY_PROTOCOL: clinical
# MEASUREMENT_PARAMETERS: human, in vivo, po
# Description: Half life in human at 100 mg, po bid for 10 days pretreated with paroxetin at 20 mg, po qd for 10 days followed by 16 days washout period then coadministered with paroxetin at 20 mg, po qd and fosamprenavir at 700 mg, po bid for 10 days
OBSERVABLE: half-life (h)
Kindly provide the numeric value in h only, without the unit symbol.

[ask] So what's the measured half-life for this one? "CC(C)c1nc(CN(C)C(=O)N[C@H](C(=O)N[C@@H](Cc2ccccc2)C[C@H](O)[C@H](Cc2ccccc2)NC(=O)OCc2cncs2)C(C)C)cs1"
[reply] 4.1

---

# ASSAY_PROTOCOL: Apparent oral clearance in human at 20 mg, po qd for 10 days
# Assay type: ADME, organism-based
# MEASUREMENT_PARAMETERS: in vivo
OBSERVABLE: CL/F (mL/min)
Write the value in mL/min as a bare number.

[ask] Using the record for "Fc1ccc([C@@H]2CCNC[C@H]2COc2ccc3c(c2)OCO3)cc1" , report its CL/F.
[reply] 552

---

# ASSAY_PROTOCOL: AUC (0 to 24 hrs) in human at 20 mg, po qd for 10 days
# Type: ADME, organism-based
# Design: time < 24 hr, dose 20 mg, route oral
# MEASUREMENT_PARAMETERS: plasma
OBSERVABLE: AUC at 24 h
Form field: result (number plus unit)

[ask] // returns reported AUC at 24 h for input "Fc1ccc([C@@H]2CCNC[C@H]2COc2ccc3c(c2)OCO3)cc1"
[reply] 590 ng·h/mL

---

# ASSAY_PROTOCOL: Half life in human at 20 mg, po qd for 10 days followed by 16 days washout period and treated with 20 mg, po qd for 10 days coadministered with fosamprenavir at 700 mg, po bid and ritonavir at 100 mg, po bid
# Type: ADME, organism-based
# MEASUREMENT_PARAMETERS: in vivo
OBSERVABLE: half-life

[ask] Form field: reported half-life of "Fc1ccc([C@@H]2CCNC[C@H]2COc2ccc3c(c2)OCO3)cc1"
[reply] 15.9 h
